Listing of entries alongside the reported binding signal.
Target: Ago2 (Homo sapiens, UniProt Q9UKV8 1-859)
Sequence (Q9UKV8 whole entry): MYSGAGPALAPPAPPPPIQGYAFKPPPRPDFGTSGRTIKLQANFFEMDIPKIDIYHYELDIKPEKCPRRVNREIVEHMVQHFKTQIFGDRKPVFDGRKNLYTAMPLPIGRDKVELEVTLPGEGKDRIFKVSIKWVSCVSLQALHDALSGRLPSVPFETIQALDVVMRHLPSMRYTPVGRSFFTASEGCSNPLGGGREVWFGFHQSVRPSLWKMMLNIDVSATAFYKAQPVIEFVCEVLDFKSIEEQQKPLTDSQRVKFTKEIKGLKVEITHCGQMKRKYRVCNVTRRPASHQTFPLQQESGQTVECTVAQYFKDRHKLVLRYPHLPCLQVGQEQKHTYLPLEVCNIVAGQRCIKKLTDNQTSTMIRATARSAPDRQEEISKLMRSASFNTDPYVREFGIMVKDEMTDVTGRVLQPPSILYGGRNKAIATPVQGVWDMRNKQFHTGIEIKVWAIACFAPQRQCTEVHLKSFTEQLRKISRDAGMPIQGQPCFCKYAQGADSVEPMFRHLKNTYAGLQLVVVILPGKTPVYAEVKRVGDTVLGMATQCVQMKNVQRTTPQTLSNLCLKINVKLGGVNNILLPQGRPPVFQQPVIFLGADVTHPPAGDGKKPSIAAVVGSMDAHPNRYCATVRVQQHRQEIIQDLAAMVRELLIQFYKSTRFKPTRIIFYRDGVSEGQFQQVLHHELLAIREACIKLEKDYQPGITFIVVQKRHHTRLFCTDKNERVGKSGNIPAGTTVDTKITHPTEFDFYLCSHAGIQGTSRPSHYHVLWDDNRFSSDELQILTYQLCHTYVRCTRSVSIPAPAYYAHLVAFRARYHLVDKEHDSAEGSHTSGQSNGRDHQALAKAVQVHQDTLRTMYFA
Assay: filter binding

# Binder, Endpoint Value
records = [
    ("strong-sup miR-122 / 2 nt bridge (mixed, 5' phosphate on guide) RNA 1: UGGAGUGUGACAGCGGCGAAAG RNA 2: CCGCAAACACUCCUAA", "> 20 fold affinity vs seed-only N7"),
    ("strong-sup miR-122 / 4 nt bridge (mixed, 5' phosphate on guide) RNA 1: UGGAGUGUGACAGCGGCGAAAG RNA 2: CCGCAAAAACACUCCUAA", "> 20 fold affinity vs seed-only N7"),
    ("strong-sup miR-122 / 15 nt bridge (mixed, 5' phosphate on guide) RNA 1: UGGAGUGUGACAGCGGCGAAAG RNA 2: CCGCAAAAAAAAAAAAAAAACACUCCUAA", "> 10 fold affinity vs seed-only N7"),
]

Problem: Supply measured binding signal of strong-sup miR-122 / 1 nt bridge (mixed, 5' phosphate on guide) RNA 1: UGGAGUGUGACAGCGGCGAAAG RNA 2: CCGCAACACUCCUAA in your reply.
Result: > 10 fold affinity vs seed-only N7
